Tested on: TYKNU
Assay procedure: fractional viability relative to vehicle; higher = less growth inhibition
Assay setup: 2uM; 72 h; genotype: OPA1 knockout (sgOPA1 #2)
In all, about 2,000 compounds were measured (“fractional viability relative to vehicle”: median about 0.92, lowest 2% from about 0.11 on). This excerpt belongs to a sample that is enriched for the lowest values.
Could you please report measured fractional viability for the items listed next?
Give bare numbers.

>>> reading("O=C(c1ccc(C(=O)N2CCC(N3CCCC3)CC2)c(Nc2ccccc2)c1)N1CCC(N2CCCC2)CC1")
0.924
>>> reading("COc1cccc(-n2c(=O)[nH]c3cc(Cl)n(-c4ccc(-c5cccc(OC)c5O)cc4)c3c2=O)c1")
0.827
>>> reading("C[C@H](NC(=O)CCc1nc2ccccc2c(=O)[nH]1)c1ccccc1")
0.861
>>> reading("Cc1nn(-c2ccccc2)c(C)c1C=NN1CCN(Cc2ccccc2)CC1")
0.946
>>> reading("O=C(O)c1ccccc1")
0.885

// for each compound below, give its fractional viability
1. CCC[C@H](NC(=O)/C(C#N)=C/c1cccc(Br)n1)c1ccccc1 [Degrasyn (WP1130)]
2. NC(=O)c1ccc(N(C(N)=O)c2c(F)cccc2F)nc1-c1ccc(F)cc1F
3. N#C/C(=C\c1ccc(O)c(O)c1)C(=O)NCc1ccccc1

0.343
1.19
1.03

###

Tested on: TYKNU
Assay procedure: fractional viability relative to vehicle; TYKNU is a high-grade serous ovarian cancer line; higher = less growth inhibition
Assay setup: 10uM; 72 h; genotype: OPA1 knockout (sgOPA1 #2)
The full ranking holds about 2,000 compounds; the median of “fractional viability relative to vehicle” is about 0.92, and the lowest 2% start at about 0.11. Shown is part of a subset that was picked to be rich in the lowest values.
Outcome measure: fractional viability
Numbers only.

Example cases with answers are listed next.
>>> reading("C=CC(=O)Nc1ccc2ncnc(Nc3cccc(Br)c3)c2c1")
0.588
>>> reading("Cc1cc(Cn2cnc3c2CC(C(=O)O)N(C(=O)C(c2ccccc2)c2ccccc2)C3)ccc1N(C)C (configuration not stated)")
0.95
>>> reading("CN1CCC(CNc2ccc3ncc(-c4cccc(OC(F)(F)F)c4)n3n2)CC1 [SGI-1776 free base]")
0.107
>>> reading("COC(=O)c1ccc2c(c1)NC(=O)/C2=C(\\Nc1ccc(N(C)C(=O)CN2CCN(C)CC2)cc1)c1ccccc1 [Nintedanib (BIBF 1120)]")
0.372
>>> reading("COc1cc2/c(=N/c3ccc(Br)cc3F)nc[nH]c2cc1OCC1CCN(C)CC1 [Vandetanib (ZD6474)]")
0.638

// for each compound below, give its fractional viability
1. Nc1cccc(S(=O)(=O)N2CCCN(S(=O)(=O)c3ccc4c(c3)OCCO4)CC2)c1
2. Cc1nc(N(C)C(=O)Cc2ccc(-c3ccccn3)cc2)sc1S(N)(=O)=O [Pritelivir (BAY 57-1293)]
3. COC(=O)N1CCN(Cc2cccc(NC(=O)Nc3ccc(C)nc3)c2F)CC1
4. CN(C)Cc1cccc(N/C(=C2\C(=O)Nc3cc(C(N)=O)ccc32)c2ccccc2)c1

0.849
0.791
0.982
0.993

// for each compound below, give its fractional viability
1. Cc1cc(CS(=O)(=O)c2ccccc2)cc(OCc2ccc(CN3CCC[C@@H]3CO)cc2)c1
2. CS(=O)(=O)CCNCc1ccc(-c2ccc3ncnc(Nc4ccc(OCc5cccc(F)c5)c(Cl)c4)c3c2)o1
3. CNC(=O)c1cc(Oc2ccc3nc(N[C@@H]4CCCC[C@H]4O)sc3c2)ccn1
4. COc1nccc(-c2c(-c3ccc(F)cc3)ncn2C2CCC(O)CC2)n1 (configuration not stated)
5. COc1ccc(C2=N[C@@H](c3ccc(Cl)cc3)[C@@H](c3ccc(Cl)cc3)N2C(=O)N2CCNC(=O)C2)c(OC(C)C)c1 [Nutlin-3a]

0.875
0.369
0.74
0.786
0.367

// for each compound below, give its fractional viability
1. CCS(=O)(=O)N1CCN(c2ccc(Nc3ncc(C(N)=O)c(NC4CC4)n3)cc2)CC1
2. O=[N+]([O-])c1cn2c(n1)OC[C@@H](OCc1ccc(OC(F)(F)F)cc1)C2
3. CCCCC(F)(F)[C@@]1(O)CC[C@H]2[C@@H](CC(=O)[C@@H]2CCCCCCC(=O)O)O1 [Lubiprostone]

1: 0.496; 2: 1.66; 3: 1.03
